# Tested on: Plasmodium berghei
# assay-name: Luciferase/luciferin-expressing antifolate-resistant parasites were used to infect a culture of HepG2 cells that were pre-incubated with compounds. Infected hepatocytes emit light due to the luciferase reaction. Assay results are presented as the percent inhibition of light emission compared to control. […]
# Format: functional
# condition-summary: sporozoite, HEPG2TOX_HILL_SLOPE 16.5, HEPG2TOX_R_SQUARED 0.725, read-out: LUCIFERASE INFECTION ASSAY - IC50
pIC50: −log10 of the molar value.
measured-property: pIC50

For the compound shown here, Cc1ccc(NC(=O)c2snnc2C)cc1Cl , give the reported pIC50.
< 4.91

###

# System: Plasmodium berghei
# assay-name: Luciferase/luciferin-expressing antifolate-resistant parasites were used to infect a culture of HepG2 cells that were pre-incubated with compounds. Infected hepatocytes emit light due to the luciferase reaction. Assay results are presented as the percent inhibition of light emission compared to control. […]
# Type: functional
# condition-summary: sporozoite, PBLUC_HILL_SLOPE 2.35, PBLUC_R_SQUARED 0.383, read-out: LUCIFERASE INFECTION ASSAY - IC50
measured-property: IC50

What measured IC50 is associated with Cc1ccc(NNC(=O)c2cc3ccccc3o2)cc1Cl on Plasmodium berghei?
6.24 µM

###

# Tested on: Plasmodium berghei
# assay-name: Luciferase/luciferin-expressing antifolate-resistant parasites were used to infect a culture of HepG2 cells that were pre-incubated with compounds. Infected hepatocytes emit light due to the luciferase reaction. Assay results are presented as the percent inhibition of light emission compared to control. […]
# Type: functional
# condition-summary: sporozoite, HEPG2TOX_HILL_SLOPE 9.39, HEPG2TOX_R_SQUARED 0.787, PBLUC_HILL_SLOPE 2.67, PBLUC_R_SQUARED 0.485, read-out: LUCIFERASE INFECTION ASSAY - IC50
measured-property: pIC50
Value format note: pIC50 is -log10 of concentration (mol/L); just state the number.

What measured pIC50 is associated with Cc1ccccc1CNC(=O)c1ccc(NC(=O)c2ccco2)s1 on Plasmodium berghei?
5.24

###

# Test system: Plasmodium berghei
# assay-name: Luciferase/luciferin-expressing antifolate-resistant parasites were used to infect a culture of HepG2 cells that were pre-incubated with compounds. Infected hepatocytes emit light due to the luciferase reaction. Assay results are presented as the percent inhibition of light emission compared to control. […]
# Format: functional
# condition-summary: sporozoite, HEPG2TOX_HILL_SLOPE 1.03, HEPG2TOX_R_SQUARED 0.0682, read-out: LUCIFERASE INFECTION ASSAY - IC50
pIC50: −log10 of the molar value.
measured-property: pIC50

For the compound shown here, CC(C)(C)c1cc2nc(C(F)(F)F)cc(SCCOC(=O)Nc3cccc(Cl)c3)n2n1 , give the reported pIC50.
< 5.16

###

# Test system: Plasmodium berghei
# assay-name: Luciferase/luciferin-expressing antifolate-resistant parasites were used to infect a culture of HepG2 cells that were pre-incubated with compounds. Infected hepatocytes emit light due to the luciferase reaction. Assay results are presented as the percent inhibition of light emission compared to control. […]
# Type: functional
# condition-summary: sporozoite, PBLUC_HILL_SLOPE 0.81, PBLUC_R_SQUARED 0.755, read-out: LUCIFERASE INFECTION ASSAY - IC50
measured-property: IC50 (nM)
Give a bare numeral; the unit nM is implied.

For the compound shown here, Cc1c(C)n(CCCN(C)C)c2ncn3nc(COc4ccccc4)nc3c12 , give the reported IC50.
821
